# Tested on: Cryptococcus neoformans
# Test Context: Concentration 32 ug.mL-1; ASSAY_TEST Inhibition of Fungal Growth; detection method Resazurin; Absorption (OD600-OD570); plate type 384well; NBS; CORNING #3640
# Description: Antifungal activity against Cryptococcus neoformans H99 ATCC 208821 (CO-ADD:FG_002); MIC in YNB media using NBS plates, by Resazurin OD(600-570)
Results with a measured potency or affinity are listed apart.
Property: Inhibition (%)
Reply with just the number (in %).

Below, 2 molecules whose answers are already recorded.
Molecule | Target Or Test System | Inhibition / %
CC(=O)O[C@H]1C[C@@]2(C)C(C[C@@H](O)C3[C@@]4(C)CC[C@@H](OC(=O)c5ccccc5C(=O)OCCc5ccc(OCCO[N+](=O)[O-])cc5)[C@@H](C)C4CC[C@@]32C)/C1=C(\CCC=C(C)C)C(=O)OCc1ccccc1 (stereo partly drawn) | Cryptococcus neoformans | -57.39
CC(=O)O[C@H]1C[C@@]2(C)C(C[C@@H](O)C3[C@@]4(C)CC[C@@H](OC(=O)CCCCO[N+](=O)[O-])[C@@H](C)C4CC[C@@]32C)/C1=C(\CCC=C(C)C)C(=O)OCc1ccccc1 (stereo partly drawn) | Cryptococcus neoformans | -91.73

We now examine a further molecule.
I'd like to know its Inhibition. The molecule in question is CC(=O)O[C@H]1C[C@@]2(C)C(C[C@@H](O)C3[C@@]4(C)CC[C@@H](O)[C@@H](C)C4CC[C@@]32C)/C1=C(\CCC=C(C)C)C(=O)On1nnc2ccccc21 (stereo partly drawn)
-40.31

----------
# System: Candida albicans
# Test Context: 32 ug/mL
# Description: Antifungal activity against Candida albicans ATCC 90028 (CO-ADD:FG_001); MIC in YNB media using NBS plates, by OD630
Entries with a potency or affinity are not part of this list.
Property: Inhibition (%)
Field: numeric (%). Do not append units.

The cases that follow already have their Inhibition on record.
Compound | Inhibition, %
CC(=O)O[C@H]1C[C@@]2(C)C(CC(=O)C3[C@@]4(C)CC[C@@H](OC(=O)CCCCCO[N+](=O)[O-])[C@@H](C)C4CC[C@@]32C)/C1=C(\CCC=C(C)C)C(=O)OCc1ccccc1 (some centres not stated) | -2.93
CC(=O)O[C@H]1C[C@@]2(C)C(C[C@@H](O)C3[C@@]4(C)CC[C@@H](OC(=O)c5ccccc5C(=O)Nc5cccc(N)c5)[C@@H](C)C4CC[C@@]32C)/C1=C(\CCC=C(C)C)C(=O)OCc1ccccc1 (some centres not stated) | 1.55
CC(=O)O[C@H]1C[C@@]2(C)C(C[C@@H](O)C3[C@@]4(C)CC[C@@H](OC(=O)CO[N+](=O)[O-])[C@@H](C)C4CC[C@@]32C)/C1=C(\CCC=C(C)C)C(=O)OCc1ccccc1 (some centres not stated) | 0.87

Fill in: Inhibition of CC(=O)O[C@H]1C[C@@]2(C)C(C[C@@H](O)C3[C@@]4(C)CC[C@@H](OC(=O)c5ccccc5C(=O)OCCc5ccc(OCCO[N+](=O)[O-])cc5)[C@@H](C)C4CC[C@@]32C)/C1=C(\CCC=C(C)C)C(=O)OCc1ccccc1 (some centres not stated) is ___
-0.23

Which Inhibition value is on record for CC(=O)O[C@H]1C[C@@]2(C)C(CC(=O)C3[C@@]4(C)CC[C@@H](OC(=O)CCCCO[N+](=O)[O-])[C@@H](C)C4CC[C@@]32C)/C1=C(\CCC=C(C)C)C(=O)OCc1ccccc1 (some centres not stated) ?
-1.47

Look up Inhibition for this compound: CC(=O)O[C@H]1C[C@@]2(C)C(C[C@@H](O)C3[C@@]4(C)CC[C@@H](OC(=O)c5ccccc5C(=O)Oc5ccc(CCO[N+](=O)[O-])cc5)[C@@H](C)C4CC[C@@]32C)/C1=C(\CCC=C(C)C)C(=O)OCc1ccccc1 (some centres not stated)
-5.71

Fill blank: measured Inhibition of the compound CC(=O)O[C@H]1C[C@@]2(C)C(C[C@@H](O)C3[C@@]4(C)CC[C@@H](OC(=O)CCCCCO[N+](=O)[O-])[C@@H](C)C4CC[C@@]32C)/C1=C(\CCC=C(C)C)C(=O)OCc1ccccc1 (some centres not stated) is ____.
-2.51
